experiment: Her2 expression decrease, cell viability multiplex – SKBR3 breast tumor cells, AlphaScreen, ATP viability, primary screen (AID 461); details: SKBR3 Her2 protein level, 18-24 h, measured here: SKBR3 viability, ATP luminescence, at 10 µM;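 also: percent of carrier control wells set as 100% viability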
Would you mind telling me the reported viability of each entry?
Answers are plain numbers, in %.

Respectfully, I request viability for each entry included below.
1. CCOC(=O)c1sc(NC(=O)c2noc3c2CCCC3)c(C(=O)OCC)c1C
2. CC1=C(C(=O)Nc2ccccc2)C(c2ccccn2)n2nc(CCCO)nc2N1 (centres undefined)
3. CCOC(=O)C(C(=O)OCC)C(C)C#CCN1CCCCC1 (centres undefined)
4. c1ccc(C2(Cn3ccc4ccccc43)OCCO2)cc1
5. C/C=C/COC(=O)c1[nH]c2c(c1C)C(=O)CC(c1ccco1)C2 (centres undefined)
6. COc1ccc(N2CCN(Cc3nc4c(c(=O)n(C)c(=O)n4C)n3Cc3ccccc3C)CC2)cc1

Response:
1. 69.5
2. 94.5
3. 91.5
4. 89
5. 80.5
6. 92.5

Could you report viability for every entry in the following list?
1. COc1ccc(C/C(N)=N/n2cnnc2)cc1Cl
2. COc1ccc(N2CCN(CCNC(=O)CCS(=O)(=O)c3cccc4nsnc34)CC2)cc1

Response:
94
90

Provide the reported viability of each entry below, same order.
1. CCOC(=O)N1CCC(N2C(=O)c3ccccc3C2Nc2cc(Cl)c(OC)cc2OC)CC1 (centres undefined)
2. COc1ccccc1C(=O)OCn1nnc2ccccc2c1=O
3. CC(=O)Nc1cccc(Oc2nc(C)cc(C)c2C#N)c1
4. COc1ccccc1CNC(=O)C1CCC(CNc2c(N3CCOCC3)c(=O)c2=O)CC1 (centres undefined)
5. CCOc1ccc(N(CC(=O)NCc2ccco2)S(=O)(=O)c2ccc(OC)c(OC)c2)cc1
6. O=C(O)C1C2C=CC3(CN(C4CCCC4)C(=O)C13)O2 (centres undefined)
7. CCOc1ccc(N(CC(=O)OC)S(=O)(=O)c2ccc(OC)c(OC)c2)cc1

Response:
1. 92.5
2. 96.5
3. 96.5
4. 90.5
5. 79
6. 101
7. 108

* * *

Would you kindly list inhibition for each of these compounds?
assay: RAM pathway blockade in budding yeast – dse1pr::URA3 reporter, 5-FOA selection, pilot screen (AID 869);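 also: 0% = DMSO wells with no growth and 100% = 10 µM 1-NA-PP1 with full growth; RAM network block rescues cells from 5-FOA so hits raise OD615 growth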; conditions: S. cerevisiae dse1pr::URA3 5-FOA growth, OD615, 2 d; at 10 µM; stronger effect = higher value; strain carries analog-sensitive mutant Cbk1 kinase
One number for each entry, in %.

Sample answers from the record:
COc1ccc(OCC(=O)N2CCN(C(=O)c3ccccc3)CC2)cc1    1.66
CCOC(=O)N1CCN(C(=O)C2CCCN(Cc3nc(-c4ccc(Cl)cc4)oc3C)C2)CC1 (stereo not given)    0.12
CC(C)n1c(CN2CCN(C)CC2)nc2c1c(=O)n(C)c(=O)n2C    0.885
COc1ccccc1N1CCN(C(=O)C2CCN(S(=O)(=O)c3ccc(F)cc3)CC2)CC1    1.03

// batch mode: one inhibition value per listed entry
1. O=C(CSc1nnnn1-c1ccccc1)CSc1nnnn1-c1ccccc1
2. COc1ccc(N(CC(=O)Nc2ccc3c(c2)OCO3)S(=O)(=O)c2ccccc2)c(OC)c1
3. Cc1ccnc2c(N3C(=O)C4C5C=CC(C5)C4(C)C3=O)cccc12 (stereo not given)
4. O=C(Cn1nc(Cc2cccnc2)c2ccccc2c1=O)Nc1ccc2c(c1)OCO2
5. C=C(C)c1cccc(C(C)(C)NC(=O)NCC2CCCO2)c1 (stereo not given)

Response:
1. 2.98
2. 2.93
3. 1.86
4. 0.975
5. 1.77

Query: I am curious: what inhibition value has been reported for `Cc1cc(=O)oc2c1c(C)nn2-c1ccc(C(=O)OC(C)C)cc1` ?
Response: 0.78

* * *

assay: yeast transport mutant growth inhibition pilot in 384-well plates, post-Golgi transport modulator project (AID 636); settings: absorbance 615 nm, about 18 h
Active and inactive are the calls of the source. Cut-off read from the data, not from the text of the source: active = inhibition above about 31%; inactive = the rest.
Please reply with one of these outcomes: active, inactive

Query: So what was the verdict on `O=C(CCC(=O)OCC(=O)c1ccccc1)NC1CCCCC1` in this test?
Response: inactive

* * *

assay: Her2 expression decrease, cell viability multiplex – SKBR3 breast tumor cells, AlphaScreen, ATP viability, primary screen (AID 461); details: SKBR3 Her2 protein level, 18-24 h, measured here: SKBR3 viability, ATP luminescence, at 10 µM;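 also: percent of carrier control wells set as 100% viability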
For each of the compounds below, state its viability.
Numbers only, in %.

CCC(C)C(=O)Nc1nc2c(s1)C(=O)CC(C)(C)C2 (stereo unspecified)    120

Quick request: viability for each listed item, please.
1. O=C(Cn1ncc2c1-c1ccccc1OC2)N1CCN(c2ccccn2)CC1
2. CC(C)c1nnc(NC(=O)C2CCCCC2)s1
3. COC(=O)C(C)Sc1nc2c(c(=O)n1-c1ccccc1)SCC2 (stereo unspecified)
4. CC(=O)N1c2c(cc(Br)cc2S(=O)(=O)NCC2COc3ccccc3O2)CC1C (stereo unspecified)

Response:
1. 91.5
2. 98.5
3. 102
4. 97.5

* * *

experiment: RAM pathway blockade in budding yeast – dse1pr::URA3 reporter, 5-FOA selection, pilot screen (AID 869);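 also: 0% = DMSO wells with no growth and 100% = 10 µM 1-NA-PP1 with full growth; RAM network block rescues cells from 5-FOA so hits raise OD615 growth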; settings: S. cerevisiae dse1pr::URA3 5-FOA growth, OD615, 2 d; at 10 µM; stronger effect = higher value; strain carries analog-sensitive mutant Cbk1 kinase
Provide the reported inhibition of each item.
Give bare numbers, in %.

Examples with their reported inhibition follow.
Cc1cc(NC(=O)CSc2nc3c(c(-c4cccnc4)c2C#N)CCC3)no1    1.75
O=C(NCCSc1c[nH]c2ccccc12)c1ccco1    1.83

List reported inhibition for each of these compounds:
1. O=C(O)C1CC=CCC1C(=O)Nc1cccc(F)c1 (stereo unspecified)
2. O=C(NC1CCCCCC1)c1c(F)c(F)c(F)c(F)c1F
3. CCOc1ccc(Cc2nnc(SCC(=O)c3ccc(OC)cc3)o2)cc1
4. O=C(OCCN=C1NS(=O)(=O)c2ccccc21)C1CC(=O)N(c2ccc(Cl)cc2)C1 (stereo unspecified)
5. COc1cccc(C2CC(c3ccc(C)cc3)n3nc(N)nc3N2)c1 (stereo unspecified)
6. O=C1CCCC(O)=C1C1C2=C(CCCC2=O)Oc2ccccc21 (stereo unspecified)

Response:
[1.86, 1.01, 1.66, 0.695, -0.18, 2.33]

Hello, I would appreciate it if you could give inhibition for each entry below.
1. CCCCn1c(CN2CCN(c3ccccc3)CC2)nc2c1c(=O)n(C)c(=O)n2C
2. Cc1ccc(-c2nc3cnccn3c2Nc2ccc3c(c2)OCO3)o1
3. CC(Cc1c[nH]c2ccccc12)NC(=O)C1CCCNC1=O (stereo unspecified)

Response:
[0.475, 1.34, 1.27]

* * *

experiment: S. cerevisiae growth inhibition in permissive medium (OD615), pilot counter-assay for S. cerevisiae lifespan shortening project, permissive growth control (AID 705); conditions: OD615, 24 h, at 10 µM, stronger effect = higher value
Each entry gets 0.0 if its growth inhibition stays under -10%, and 1.0 if its growth inhibition is -10% or above.

Worked set:
Cc1ccccc1N1C(=O)c2cccc3c(N(C)CCO)ccc(c23)C1=O    1.0
Cc1ccc(Cn2c(=O)c3ccccc3n3c(CCC(=O)O)nnc23)cc1    1.0
Cc1ccc(C(=O)Nc2ccc(Cl)cn2)cc1S(=O)(=O)N1CCOCC1    1.0
Cc1nnc(SCCn2c(N3CCCC(C)C3)nc3c2c(=O)n(C)c(=O)n3C)s1 (stereo not given)    0.0

Query: Decide: growth inhibition of `COc1cc2[nH]c(=O)n(CCCCCC(=O)NCCCN3CCCC3=O)c(=O)c2cc1OC` >= -10%?
Response: 1.0

Query: Next compound up: COc1ccccc1NC(=O)C1=C(C)Nc2nc(-c3cccs3)nn2C1c1cccnc1 (stereo not given)
Response: 0.0

Query: What do you have for `CCn1cc(S(=O)(=O)CC(=O)Nc2ccc3c(c2)OCCO3)c2ccccc21` ?
Response: 0.0

Query: // query: CCOC(=O)C1=C(C)N(C)C(=O)NC1c1cccc(O)c1 (stereo not given)
Response: 1.0

Query: Same read-out for `CCOC(=O)N1CCN(C(=O)c2ccc(N3C(=O)c4ccccc4C3=O)cc2)CC1` ?
Response: 1.0

* * *

assay: S. cerevisiae growth inhibition in permissive medium (OD615), pilot counter-assay for S. cerevisiae lifespan shortening project, permissive growth control (AID 705); settings: OD615, 24 h, at 10 µM, stronger effect = higher value
measurement-label: growth inhibition (%)
Answers are plain numbers, in %.

Please review the following examples before continuing.
COc1cc(NC(=O)c2ccc(S(=O)(=O)N(C)C)cc2)cc(OC)c1OC    -4.25
CCCCOc1ccc(S(=O)(=O)Nc2cc(OC)ccc2OC)cc1    -1.52
O=C(COC(=O)C1(c2ccccc2F)CCCC1)NC1CCS(=O)(=O)C1 (configuration not stated)    5.97
O=C(NCc1ccc2c(c1)OCO2)C1CCC(CNc2c(N3CCCCC3)c(=O)c2=O)CC1 (configuration not stated)    -2.47

Quick one: give me growth inhibition for each item below, same order please.
1. O=C(NCCN1CCN(c2ccccc2)CC1)c1ccc(NC(=O)C2CCCO2)cc1 (configuration not stated)
2. COc1cccc(NC(=O)Cn2cnc3sc(C)c(S(=O)(=O)N4CCN(C)CC4)c3c2=O)c1
3. CC(C)(C)SCCNC(=O)COc1ccc(Cl)cc1
4. COc1ccc(S(=O)(=O)NCc2ccc3c(c2)OCO3)cc1C(=O)O

Response:
-5.63
-17.7
-8.49
-4.53

# map each molecule to its growth inhibition
1. Cc1ccc(S(=O)(=O)N2CCCC2C(=O)Nc2nccs2)cc1 (configuration not stated)
2. COc1cc(C(=O)Nc2cccc(-c3nncn3C)c2)cc(OC)c1OC
3. CC(=O)NCCc1ccc(S(=O)(=O)NCc2ccc3c(c2)OCO3)cc1
4. CCn1cc(SCC(=O)Nc2cc(C)on2)c2ccccc21

Response:
1: -15.2; 2: 2.38; 3: -15.2; 4: -5.85
